Source of measurements: patent US20040053822A1

- target entity: HLA-B*5101 (human)
- test description: competition vs 125I probe peptide, purified HLA
- measurement setup: remark: other sources report otherwise
readout kind: IC50 (nM)

- binder: "VPISMLYIL [MAGE2.170.M5 …]"
  experimental result: 70
- binder: "VPISHLYILI [MAGE2.170.110 …]"
  experimental result: 50
